SYSTEM: FGFR1 (UniProt P11362)
Sequence (P11362 whole entry, looked up): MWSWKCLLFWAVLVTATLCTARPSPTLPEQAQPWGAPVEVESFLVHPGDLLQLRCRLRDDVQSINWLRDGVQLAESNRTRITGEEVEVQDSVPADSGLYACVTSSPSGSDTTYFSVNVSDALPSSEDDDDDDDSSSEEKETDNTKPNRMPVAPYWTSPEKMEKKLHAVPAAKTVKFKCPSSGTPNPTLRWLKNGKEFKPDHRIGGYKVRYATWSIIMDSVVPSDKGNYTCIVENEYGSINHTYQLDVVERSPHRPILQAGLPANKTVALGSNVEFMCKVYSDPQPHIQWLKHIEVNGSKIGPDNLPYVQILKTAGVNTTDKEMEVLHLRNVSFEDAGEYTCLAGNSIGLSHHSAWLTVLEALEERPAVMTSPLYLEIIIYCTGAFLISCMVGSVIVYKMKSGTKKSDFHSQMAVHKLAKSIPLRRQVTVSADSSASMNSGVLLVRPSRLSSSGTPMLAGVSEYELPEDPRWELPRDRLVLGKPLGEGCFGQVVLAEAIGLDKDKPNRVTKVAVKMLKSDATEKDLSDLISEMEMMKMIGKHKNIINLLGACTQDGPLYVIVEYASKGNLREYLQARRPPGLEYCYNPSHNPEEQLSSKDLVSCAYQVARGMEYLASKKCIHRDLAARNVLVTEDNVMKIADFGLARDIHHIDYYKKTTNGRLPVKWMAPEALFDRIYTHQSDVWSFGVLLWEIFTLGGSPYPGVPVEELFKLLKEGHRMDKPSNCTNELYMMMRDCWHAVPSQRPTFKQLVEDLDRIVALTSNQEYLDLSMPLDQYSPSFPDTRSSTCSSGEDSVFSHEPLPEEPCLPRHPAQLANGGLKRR
ASSAY PROCEDURE: phosphorylation enrichment, bacterial display (enrichment ratio); higher = better substrate or ligand; peptides without Tyr show the background;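 also: 11-residue human phosphosite peptides and single-mutation variants displayed on the E. coli surface, counted by deep sequencing, each peptide's frequency after selection divided by its frequency in the unselected input library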;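 also: frequency after pTyr selection over input frequency; kinase dosed for 20-30% of maximal phosphorylation in three min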
MEASURED METRIC: phosphorylation enrichment
Just the number.

Sample records with phosphorylation enrichment:
1) QFNMQYSSSAA [ERBB2IP_Y981_I979M_YF]: 0.558
2) GQLIVYAPPEW [CNTN6_Y315_F314V]: 0.513
3) VRTGIYHGGEP [PIK3CA_Y361]: 0.542

Value of measured phosphorylation enrichment for the entry GRTPLYMDRQG [AGXT_Y194_G190R] : 0.396

----------
SYSTEM: Fyn (UniProt P06241)
Sequence (P06241 whole entry, looked up): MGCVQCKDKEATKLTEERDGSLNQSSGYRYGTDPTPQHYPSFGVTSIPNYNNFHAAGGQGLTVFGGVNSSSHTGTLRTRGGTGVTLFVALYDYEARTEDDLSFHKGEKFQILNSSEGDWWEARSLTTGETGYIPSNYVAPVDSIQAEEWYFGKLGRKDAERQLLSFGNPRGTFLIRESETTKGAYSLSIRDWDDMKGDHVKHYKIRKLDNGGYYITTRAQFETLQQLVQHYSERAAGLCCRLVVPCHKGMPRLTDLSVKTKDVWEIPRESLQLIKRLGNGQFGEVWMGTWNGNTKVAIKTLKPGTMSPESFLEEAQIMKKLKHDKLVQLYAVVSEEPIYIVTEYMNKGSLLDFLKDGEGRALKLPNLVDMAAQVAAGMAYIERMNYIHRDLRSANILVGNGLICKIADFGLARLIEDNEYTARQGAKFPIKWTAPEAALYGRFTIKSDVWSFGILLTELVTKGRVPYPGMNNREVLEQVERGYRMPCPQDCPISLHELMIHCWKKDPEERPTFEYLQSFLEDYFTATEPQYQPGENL
ASSAY PROCEDURE: phosphorylation enrichment, bacterial display (enrichment ratio); higher = better substrate or ligand; peptides without Tyr show the background
Each record here notes measured phosphorylation enrichment.
The answer should be written as a number, with no unit following it.

Previously resolved entries follow.
1. AASTDYYKRGD [PDHA1_Y242]: 0.597
2. QQMGTYGVRAA [ICAM2_Y260_R256Q]: 2.06
3. LNERHYGGLTG [PGAM2_Y92]: 0.53
4. IMAFFYMCDSA [CASD1_Y382_R386S_YF]: 0.548
5. RSRQIYDAFIM [GRK3_Y109_YF]: 8.83
6. GESQGYDIMEA [MSH2_Y863_P868A]: 0.456

phosphorylation enrichment recorded for this sequence, MGCVNYGAYIN [GLB1_Y485_R482C] , is 0.578

In plain terms, LFEDCYLLGTS [ASS1_Y87_R86C_YF] has a documented phosphorylation enrichment of 1.01

// RLEGVYGNNID [PTEN_Y46_R47G] : phosphorylation enrichment value = 1.57

Please fill in: phosphorylation enrichment reported for LICRRYLVMQR [IL3RA_Y328_V323L] = 0.564

phosphorylation enrichment reported for this sequence VAVVQYSGMGQ [COL6A1_Y878_T881M] : 0.439

The value of phosphorylation enrichment measured for the sequence MHYSNYVSKGS [PDGFRA_Y849_D846Y] turned out to be 0.424

QSSEGYDLGDR [KIAA1210_Y564_G565D] yielded phosphorylation enrichment of 0.948

Lab note: TWSPKYTLRSH [STRN3_Y474_N471S] gave phosphorylation enrichment of 0.445

Documented phosphorylation enrichment of AKKKMYSLKTK [AGXT_Y231_R233L] : 0.365

Looking up VSSPKYGGDDE [TMCC2_Y473_S475G] , I found its phosphorylation enrichment recorded as 0.535

----------
Reported values of phosphorylation enrichment for individual entries
SYSTEM: Jak2 (UniProt O60674)
Sequence (O60674 whole entry, looked up): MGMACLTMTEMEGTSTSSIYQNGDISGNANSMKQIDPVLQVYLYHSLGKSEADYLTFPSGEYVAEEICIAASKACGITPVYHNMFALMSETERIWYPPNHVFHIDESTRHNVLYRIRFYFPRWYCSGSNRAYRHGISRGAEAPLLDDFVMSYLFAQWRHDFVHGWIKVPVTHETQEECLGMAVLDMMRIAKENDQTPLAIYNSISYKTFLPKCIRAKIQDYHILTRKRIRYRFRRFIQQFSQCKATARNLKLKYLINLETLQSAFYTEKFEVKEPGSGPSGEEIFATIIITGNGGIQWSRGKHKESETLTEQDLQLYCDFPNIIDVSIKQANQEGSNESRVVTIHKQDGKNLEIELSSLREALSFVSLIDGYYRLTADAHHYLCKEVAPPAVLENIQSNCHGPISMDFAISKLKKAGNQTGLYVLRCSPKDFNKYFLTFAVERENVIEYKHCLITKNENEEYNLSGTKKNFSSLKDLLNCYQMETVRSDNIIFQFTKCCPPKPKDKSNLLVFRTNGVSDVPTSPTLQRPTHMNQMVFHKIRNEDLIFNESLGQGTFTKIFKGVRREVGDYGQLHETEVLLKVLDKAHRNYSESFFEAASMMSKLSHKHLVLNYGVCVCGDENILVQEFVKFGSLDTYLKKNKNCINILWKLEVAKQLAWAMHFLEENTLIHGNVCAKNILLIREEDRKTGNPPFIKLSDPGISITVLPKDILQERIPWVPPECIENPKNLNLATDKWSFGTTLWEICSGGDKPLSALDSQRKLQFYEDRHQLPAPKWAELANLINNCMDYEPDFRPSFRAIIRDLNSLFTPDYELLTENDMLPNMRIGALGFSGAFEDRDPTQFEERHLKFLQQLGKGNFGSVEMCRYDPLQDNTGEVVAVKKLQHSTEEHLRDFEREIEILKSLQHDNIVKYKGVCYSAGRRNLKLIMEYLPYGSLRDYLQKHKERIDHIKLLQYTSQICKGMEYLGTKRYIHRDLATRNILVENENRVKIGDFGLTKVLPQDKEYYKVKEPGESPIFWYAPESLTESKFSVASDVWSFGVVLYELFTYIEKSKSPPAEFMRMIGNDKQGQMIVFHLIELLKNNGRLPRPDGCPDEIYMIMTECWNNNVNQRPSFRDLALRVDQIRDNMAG
ASSAY PROCEDURE: phosphorylation enrichment, bacterial display (enrichment ratio); higher = better substrate or ligand; peptides without Tyr show the background

Solved cases (10 shown):
1. GENTMYAQVFN [LY9_Y603]: 0.803
2. RVGVDYEGRGC [PLOD1_Y675_G678R]: 0.616
3. KPVDTYFDSTR [DYNC2H1_Y2230_M2227V_YF]: 0.723
4. IEPVIYVVQRR [ANOS1_Y217]: 1.1
5. LLVVLCKFRCF [PSEN1_Y154_Y154C_YF]: 1.82
6. CTTIHYNYICN [TP53_Y234_M237I]: 0.682
7. CSGNCYLDIRP [FBN1_Y1535_R1530C]: 0.514
8. ASMAKYFASEI [ACADSB_Y372_YF]: 0.817
9. AELVPYFMEHH [PTPN11_Y80_Q79P_YF]: 1.02
10. EAGKVYLKAAM [CBFB_Y96_P100A]: 1.26

Form: item FPPISYLNAIS [MVD_Y276] ; test system Jak2 (UniProt O60674); phosphorylation enrichment: 0.51

Response field phosphorylation enrichment (Jak2 (UniProt O60674)) for item MQMEEYRGWVE [BTNL2_Y91] : 1.25

GET /values?item= RFGKVYKAHLF [ROR2_Y488_G490A] &system= Jak2 (UniProt O60674) returns phosphorylation enrichment: 0.39

Entry TLKDVCDDGKY [RPS6KA3_Y483_Y483C] , tested on Jak2 (UniProt O60674), has a reported phosphorylation enrichment of 0.841

Sample FEDALYTVLHR [UNC13D_Y61_YF] , system: Jak2 (UniProt O60674). Its phosphorylation enrichment is 1.4

Field phosphorylation enrichment (system: Jak2 (UniProt O60674)) for entry LPKDLYLISQM [LARP4_Y141_S137P] = 1.46

Jak2 (UniProt O60674) assay, sequence EQKRYYNAMKK [SCN5A_Y1495_K1493R] , recorded phosphorylation enrichment = 0.605

// phosphorylation enrichment (Jak2 (UniProt O60674)) for IGEGTSGVVFK [CDK2_Y15_Y15S_YF] = 0.582

Item FADIAYIFRHG [PAH_Y166_N167I_YF] ; assay system Jak2 (UniProt O60674); phosphorylation enrichment reported as 0.97

Assay Jak2 (UniProt O60674), sample NAGAFYALSTL [FLVCR2_Y325] , phosphorylation enrichment read: 0.751

Bench note, Jak2 (UniProt O60674): MANYMYKAGPS [MAML2_Y515] , phosphorylation enrichment reads 0.497

// phosphorylation enrichment (Jak2 (UniProt O60674)) for RFLERYIYNRQ [HLA-DPB1_Y57_E62Q] = 0.796

The measured phosphorylation enrichment that KGEDFYYVTCH [FHL1_Y149_C150Y] showed for Jak2 (UniProt O60674) is 1.43

Taken from the supplement of paper PMC10065799.
